System: UACC-62 melanoma
test_summary: NCI tumour cell line growth inhibition, 48 h
List of TGI values.

[[record]]
molecule = "Oc1ccccc1C(Sc1nc2ccccc2s1)Sc1nc2ccccc2s1"
subject_of_test = "UACC-62 melanoma"
result = "> 100 µM"

[[record]]
molecule = "NCCCCN(CCCN)/[N+]([O-])=N\\O"
subject_of_test = "UACC-62 melanoma"
result = "> 100 µM"

[[record]]
molecule = "CN(C)C(=O)c1cc2cnc(Nc3ccc(-c4csc5c(=S)cc(N6CCOCC6)oc45)cc3)nc2n1C1CCCC1"
subject_of_test = "UACC-62 melanoma"
result = "1.72 µM"

[[record]]
molecule = "C[N+](C)(C)CC1CCCCCCCCCCC1=O (stereo unspecified)"
subject_of_test = "UACC-62 melanoma"
result = "> 100 µM"

[[record]]
molecule = "CCOC(=O)c1cc(C(O)P2(=O)N(CC(C)(C)C)[C@@H]3CCCC[C@H]3N2CC(C)(C)C)cn1C(=O)OC(C)(C)C (stereo partly specified)"
subject_of_test = "UACC-62 melanoma"
result = "28.6 µM"

[[record]]
molecule = "CSc1ncnc2c1ncn2C1CC(Oc2ccc(C)cc2)C(COc2ccc(C)cc2)O1 (stereo unspecified)"
subject_of_test = "UACC-62 melanoma"
result = "> 100 µM"

[[record]]
molecule = "COc1ccccc1CCc1cc(OC)c(OC)c(OC)c1"
subject_of_test = "UACC-62 melanoma"
result = "> 100 µM"

[[record]]
molecule = "COc1cc(C(C)O)c[n+](CCc2c[nH]c3ccccc23)c1 (stereo unspecified)"
subject_of_test = "UACC-62 melanoma"
result = "> 100 µM"


Please turn your attention to the following entry.
Bench note, UACC-62 melanoma: `O=Cc1c(C(=O)O)[nH]c(=O)[nH]c1=O` , TGI reads > 100 µM

###

Tested on: DU-145 prostate
test_summary: NCI tumour cell line growth inhibition, 48 h
Attribute: TGI

Field: example entries. Status: answers known.
[[record]]
molecule = "CC(C)n1nc(-c2cc3cc(O)ccc3[nH]2)c2c(N)ncnc21"
subject_of_test = "DU-145 prostate"
result = "12 µM"

[[record]]
molecule = "Cc1ccc(N=Nc2c(O)ccc3cc(S(=O)(=O)O)cc(S(=O)(=O)O)c23)cc1"
subject_of_test = "DU-145 prostate"
result = "> 100 µM"

[[record]]
molecule = "CCCCN1C(=O)N(c2ccc(OCC)cc2)C2N(CCCC)C1C(C)(C)C2(C)C (stereo unspecified)"
subject_of_test = "DU-145 prostate"
result = "> 100 µM"

[[record]]
molecule = "COc1ccc(C2OC[C@H]3O[C@@H](OCc4ccccc4)[C@H](O)[C@@H](O)[C@@H]3O2)cc1 (stereo partly specified)"
subject_of_test = "DU-145 prostate"
result = "> 100 µM"

[[record]]
molecule = "N#CC(NNC(=O)Cc1ccccc1)c1c(O)ccc2ccccc12 (stereo unspecified)"
subject_of_test = "DU-145 prostate"
result = "> 63.2 µM"


In plain terms, CC(C)=CCC/C(C)=C/C=C/C(C)=C/C=C/C(C)=C/C=C/C=C(C)/C=C/C=C(C)/C=C/[C@H]1C(C(C)(C)O)CC[C@]1(C)O (stereo partly specified) has a documented TGI of 49.9 µM

###

System: IGROV1 ovarian
test_summary: NCI tumour cell line growth inhibition, 48 h
measured_endpoint: TGI

[[record]]
compound = "CCN(CC)C(=O)Cn1c(C)cc2ccccc21"
measured_endpoint = "TGI"
result = "> 100 µM"

[[record]]
compound = "Oc1c(CN2CCOCC2)ccc2cccnc12"
measured_endpoint = "TGI"
result = "> 10 µM"

[[record]]
compound = "c1ccc2c(c1)ccn2CCc1c[nH]c2ccccc12"
measured_endpoint = "TGI"
result = "> 10 µM"

[[record]]
compound = "CCCCC(O)(c1ccc(Cl)cc1)C(CN1CCOCC1)c1ccc(Cl)cc1 (centres undefined)"
measured_endpoint = "TGI"
result = "33 µM"

[[record]]
compound = "COc1ccccc1CCc1cc(OC)c(OC)c(OC)c1"
measured_endpoint = "TGI"
result = "> 100 µM"


The recorded TGI for `O=C(NCCCNCCCNC(=O)c1cc(-c2ccccc2)nc2ccccc12)c1cc(-c2ccccc2)nc2ccccc12` is 3.19 µM

So, `COc1cc(Cn2c3c(c4cc(O)ccc42)Cc2ccccc2C3=O)cc(OC)c1` ? Its TGI was > 100 µM

Documented TGI of `COC1=CC(=O)c2nc(-c3cccc(C)n3)[nH]c2C1=O` : 47 µM

compound `Nc1cc2[nH]c(=O)c(=O)[nH]c2cc1N` , TGI observed: > 100 µM

###

Tested on: OVCAR-5 ovarian
test_summary: NCI tumour cell line growth inhibition, 48 h
This section presents molecules with their documented TGI values.

Sample records with TGI:
[[record]]
molecule = "Cc1cn(C2CC(O)C(CO)O2)c(=O)n2nnnc12 (stereo not given)"
result = "> 100 µM"

[[record]]
molecule = "N#CC(NNC(=O)Cc1ccccc1)c1c(O)ccc2ccccc12 (stereo not given)"
result = "> 43.5 µM"

[[record]]
molecule = "COc1cc2c3c(n(CCCNC(=O)OCC4c5ccccc5-c5ccccc54)c(=O)c2cc1OC)-c1cc2c(cc1/C3=C\\CCNC(=O)OCC1c3ccccc3-c3ccccc31)OCO2"
result = "> 45 µM"

[[record]]
molecule = "O=C1/C(=N/O)Cc2c(Br)ccc(Br)c21"
result = "> 100 µM"

[[record]]
molecule = "O=C(N/N=C/c1ccc(Cl)cc1)c1ccc(C(F)(F)F)nc1Nc1cccc(C(F)(F)F)c1"
result = "13.7 µM"

[[record]]
molecule = "COC(=O)/C(=N\\Nc1nnc(C)n1N)C(C#N)c1ccc(Cl)cc1 (stereo not given)"
result = "> 100 µM"

[[record]]
molecule = "CN1CCN(CCCOc2ccc3nc(Nc4ccc(Cl)c(C(F)(F)F)c4)ccc3c2)CC1"
result = "35.4 µM"

[[record]]
molecule = "CCCCC(O)(c1ccc(Cl)cc1)C(CN1CCOCC1)c1ccc(Cl)cc1 (stereo not given)"
result = "23.7 µM"

[[record]]
molecule = "COC[C@@H](C[C@H]1O[C@@](O)([C@H](O)[C@@H]2C[C@H](OC)[C@@H](O)CC/C=C(C)/C=C/[C@@H](O[C@@H]3O[C@@H](C)[C@H](OC)[C@@H](O)[C@@H]3O)[C@H](C)/C=C(C)/C=C(C)/C=C(\\C)C(=O)O2)[C@H](C)[C@@H](O)[C@H]1C)O[C@H]1C[C@](C)(O)[C@@H](O[C@H]2C[C@@H](OC)[C@H](O)[C@@H](C)O2)C(C)O1 (stereo not given in full)"
result = "> 100 µM"

[[record]]
molecule = "COC1=CC(=O)c2nc(-c3cccc(C)n3)[nH]c2C1=O"
result = "> 100 µM"


Value of measured TGI for the entry `CC(=O)CSCc1ccccn1` : > 100 µM

The reported TGI of the molecule CCOc1ccccc1NC(=O)CC(C(=O)OC)C(=O)C(=O)OC (stereo not given) was > 100 µM

Reported TGI of `CN1C(=O)c2cccc3cc([N+](=O)[O-])cc(c23)C1=O` : > 10 µM

TGI for `CCOc1ccccc1N=Nc1ccc2oc(=O)c(C(=O)Nc3cccc(C)c3)cc2c1` is > 100 µM

For reference, reported TGI for COc1ccc(C2OC[C@H]3O[C@@H](OCc4ccccc4)[C@H](O)[C@@H](O)[C@@H]3O2)cc1 (stereo not given in full) stands at > 100 µM

Value of TGI reported for the molecule `CCN(CC)C(=S)N/N=C(/C)c1cccc(/C(C)=N\NC(=S)N(CC)CC)n1` is 20.8 µM

Value of TGI reported for the molecule `Oc1ccccc1C(Sc1nc2ccccc2s1)Sc1nc2ccccc2s1` is > 100 µM

# TGI of `COC(=O)[C@H](C)NC(=O)NC(=O)NC(=O)CI` = 36 µM

The molecule listed as `COc1cc(C(=O)N(Cc2cccnc2)C(=S)N(Cc2cccnc2)C(=O)c2cc(OC)c(OC)c(OC)c2)cc(OC)c1OC` has a reported TGI of > 100 µM

// TGI lookup, molecule = COc1cc2c(cc1OC)C(CC(=O)NN=C(C)C)NCC2 (stereo not given) , result: > 100 µM

Entry under test: COc1cc(/C=C2\C(=O)N(c3ccccc3)C(c3ccccc3)S2(=O)=O)cc(OC)c1OC (stereo not given) . Its TGI was > 100 µM

get_value(item= `Cc1ccc(N=Nc2c(O)ccc3cc(S(=O)(=O)O)cc(S(=O)(=O)O)c23)cc1` , readout=TGI) returns > 100 µM

The measured TGI associated with Cn1c(=O)c(C(c2ccc([N+](=O)[O-])cc2)c2c(O)c3ccccc3n(C)c2=O)cc2ccccc21 (stereo not given) reads 92.7 µM

Summary for this molecule, COC(CNC(=O)C(C)NC(=O)CCc1ccccc1)OC (stereo not given) : TGI is > 100 µM

Form: molecule = `CCOC(=O)c1nc2ccc(C(F)(F)F)cc2nc1NCc1cc(OC)c(OC)c(OC)c1` ; TGI = > 100 µM

// TGI value for `O=Cc1c(C(=O)O)[nH]c(=O)[nH]c1=O` : > 100 µM

Input `CC(=O)OC(/C=C/c1ccccc1)=C(OC(C)C)/C1=C(\c2ccccc2)SCCCSC1=O` . Output TGI: > 100 µM

Lab book: TGI of C[C@@H]1CC(=O)C2CCCC1C2=O (stereo not given in full) noted as > 100 µM

Notebook: `Clc1ccc(C2=Nn3c(COc4ccccc4Cl)nnc3SC2)c(Cl)c1` , TGI read as 87.1 µM

What the record says about `O=C(c1ccc(N=Cc2ccccc2O)cc1)c1ccc(N=Cc2ccccc2O)cc1` : TGI is > 100 µM

Recorded TGI (molecule `Cc1ccc(C2=C(c3ccccc3)C(Br)(c3ccc(C)cc3)C(c3ccccc3)=C2c2ccc(C)cc2)cc1` ): > 100 µM
